- protocol: in vivo
- test context: male, Wistar, rat, po, 100 mg/kg, Cl/F (apparent plasma clearance)

>  <test smiles>
CNC(=O)c1cc(Oc2ccc(NC(=O)Nc3ccc(Cl)c(C(F)(F)F)c3)cc2)ccn1

>  <CL/F / mL/min/kg>
13.3

$$$$
